Value source: patent US20240400689A1

# study_system: T1, HUMAN B7H3 (Biacore analyte) (human, UniProt Q5ZPR3 29-461, limits assumed)
# T1 construct: also called hB7H3
# T1 sequence (looked up): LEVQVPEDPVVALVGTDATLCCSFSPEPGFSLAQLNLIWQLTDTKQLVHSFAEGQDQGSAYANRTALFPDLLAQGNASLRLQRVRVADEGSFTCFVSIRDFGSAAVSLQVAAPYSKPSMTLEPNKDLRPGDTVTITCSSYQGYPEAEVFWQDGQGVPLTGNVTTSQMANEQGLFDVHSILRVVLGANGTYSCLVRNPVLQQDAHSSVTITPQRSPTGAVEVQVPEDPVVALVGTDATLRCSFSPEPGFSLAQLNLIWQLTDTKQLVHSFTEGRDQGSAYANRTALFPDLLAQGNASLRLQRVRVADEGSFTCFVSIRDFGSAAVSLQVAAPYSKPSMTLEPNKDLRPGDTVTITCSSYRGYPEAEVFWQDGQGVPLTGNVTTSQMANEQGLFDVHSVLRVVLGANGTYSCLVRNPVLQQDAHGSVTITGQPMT
# experiment_summary: SPR, Biacore 8K, antibody captured, B7H3 as analyte, 1:1 binding
koff reference
property_measured: koff (s⁻¹)

- binder: "25-D3-G4-C6 (human IgG1 chimeric antibody) (antibody, V domains shown, human IgG1 chimeric antibody of the mouse clone) VH: EIQLQQTGPELVKPGASVKISCKASGYSFTDYIILWVKQSHGMSLEWIGNINPYYNSTYYNLKFKGKATLTVDKSSSTAYMQLDSLTSEDSAVYYCARDSFDWYFGVWGAGTTVTVSS VL: DVVMTQTPLSLPVSLGDQASISCRSSQSLVHSNGNTYLHWYLQKPGQSPKLLIYKVSNRFSGVPDRFSGSGSGTDFTLKISRVETEDLGIYFCSQSTHVPPLTFGAGTKLELK"
  assay_value: 0.00025
- binder: "6-D8-E7-A11 (human IgG1 chimeric antibody) (antibody, V domains shown, human IgG1 chimeric antibody of the mouse clone) VH: QVHLQQPGAELVKPGASVKLSCKASGYTFTNYWMHWVKRRPGQGLEWIGMIHPNSGTTSFNEKFKSKATLTVDKSSSTAYMQLSSLTSEDSAVYYCAGYYGSSFSWFTYWGQGTLVTVSA VL: QAVVTQESALTTSPGGTVILTCRSSTGAVTTSNFANWVQEKPDHLFTGLIGGTSNRAPGVPVRFSGSLIGDKAALTITGAQTEDDAMYFCALWYSTHYVFGGGTKVTVL"
  assay_value: 0.000348
- binder: "7-E1-F8-F6 (human IgG1 chimeric antibody) (antibody, V domains shown, human IgG1 chimeric antibody of the mouse clone) VH: QVQLQQSGPELVKPGASVQMSCKASGYTFTDYVISWVNQRTGQGLEWIGEIYPRSGNTYYNEKFKGKATLTADKSSNTAYMQLSSLTSEDSAVYFCARFDIAYSFDYWGQGTTLTVSS VL: DVVMTQTPLSLPVSLGDQASISCRSTQSLVHSNGVTYLHWYLQKPGQSPKLLIYKVSNRFSGVPDRFSGSGSGTDFTLKISRVEAEDLGVYFCSQGTHVPWTFGGGTKLEIK"
  assay_value: 0.000222
